target: HLA-A*02:01
protocolSummary: IEDB peptide-MHC binding, cellular MHC/competitive/fluorescence; bounds were set here for any values at or beyond the usual limits of such assays
conditions: source organism: Vaccinia virus WR
IC50 for assorted sequences
Only the number, expressed in µM, is required.

## Task Fill in the recorded IC50 for this sequence, with HLA-A*02:01 as test system: `TVEFDRDKVV`
## Result 30.9

## Task Fill in the recorded IC50 for this sequence, with HLA-A*02:01 as test system: `KIDILQMREI`
## Result 6.51

## Task Fill in the recorded IC50 for this sequence, with HLA-A*02:01 as test system: `ETNIGCAVNT`
## Result 58.4

## Task Fill in the recorded IC50 for this sequence, with HLA-A*02:01 as test system: `VTPEYIKDL`
## Result 9.23

## Task Fill in the recorded IC50 for this sequence, with HLA-A*02:01 as test system: `DAEFVMCLEA`
## Result 9.14

## Task Fill in the recorded IC50 for this sequence, with HLA-A*02:01 as test system: `ITDQTVNICI`
## Result 7.2

## Task Fill in the recorded IC50 for this sequence, with HLA-A*02:01 as test system: `PLPSLEYGA`
## Result 14.7

## Task Fill in the recorded IC50 for this sequence, with HLA-A*02:01 as test system: `EAVKDKNWT`
## Result 38.7

## Task Fill in the recorded IC50 for this sequence, with HLA-A*02:01 as test system: `GAIKCEGLDV`
## Result 49

## Task Fill in the recorded IC50 for this sequence, with HLA-A*02:01 as test system: `FVKRLGPGT`
## Result 39.7

New cases:
## Task Fill in the recorded IC50 for this sequence, with HLA-A*02:01 as test system: `LISSDGARVI`
## Result 12.7

## Task Fill in the recorded IC50 for this sequence, with HLA-A*02:01 as test system: `TTENAAYQVL`
## Result 8.11

* * *

target: HLA-A*02:06
protocolSummary: IEDB peptide-MHC binding, purified MHC/competitive/radioactivity; bounds were set here for any values at or beyond the usual limits of such assays
conditions: source organism: Influenza A virus
Grouping key: IC50. Bins: lowest (below 0.1 µM), middle (0.1 µM to below 0.9 µM), highest (0.9 µM or more)

## Task Just checking, what class would you give `GLISLILQI` here?
## Result middle

New cases:
## Task Just checking, what class would you give `LVASSGTLEFI` here?
## Result middle

## Task Just checking, what class would you give `AIMDKNIML` here?
## Result middle

## Task Just checking, what class would you give `NTVSSFQV` here?
## Result highest

## Task Just checking, what class would you give `NVLSIAPI` here?
## Result highest

## Task Just checking, what class would you give `TSFFYRYGFV` here?
## Result middle

* * *

target: HLA-A*02:01
protocolSummary: IEDB peptide-MHC binding, purified MHC/competitive/radioactivity; bounds were set here for any values at or beyond the usual limits of such assays
conditions: source organism: Mammarenavirus lassaense
pIC50: −log10 of the molar value.
Answer not satisfied if pIC50 is under 6, and satisfied if it is 6 or more.

These solved cases illustrate the format of a correct answer.
## Task # bool: pIC50 of `LNISGYNFSL` >= 6
## Result satisfied

## Task # bool: pIC50 of `SIINHKFCNL` >= 6
## Result not satisfied

## Task # bool: pIC50 of `NLYDHALMSI` >= 6
## Result satisfied

New cases:
## Task # bool: pIC50 of `RLLGTFTWTL` >= 6
## Result satisfied

* * *

pIC50 for assorted sequences
target: HLA-A*02:01
protocolSummary: IEDB peptide-MHC binding, purified MHC/competitive/radioactivity; bounds were set here for any values at or beyond the usual limits of such assays
conditions: source organism: Vaccinia virus WR
A value of pIC50 is the negative decimal logarithm of a concentration given in moles per litre.

Answered cases to consult:
## Task Fill blank: measured pIC50 of the sequence `FMQRIISLSV` is ____.
## Result 8.74

## Task Fill blank: measured pIC50 of the sequence `YLLFGIKCI` is ____.
## Result 7.57

New cases:
## Task Fill blank: measured pIC50 of the sequence `LTNAISSRV` is ____.
## Result 6.04

## Task Fill blank: measured pIC50 of the sequence `AVLSEYETMV` is ____.
## Result 8.01

## Task Fill blank: measured pIC50 of the sequence `RIASILSLET` is ____.
## Result 6.01

* * *

target: HLA-A*02:06
protocolSummary: IEDB peptide-MHC binding, cellular MHC/competitive/fluorescence; bounds were set here for any values at or beyond the usual limits of such assays
conditions: source organism: Mammarenavirus guanaritoense
IC50 for assorted sequences
Only the number, expressed in µM, is required.

## Task Fill blank: measured IC50 of the sequence `FMNDLQVSR` is ____.
## Result 33.6

## Task Fill blank: measured IC50 of the sequence `YVIGLLPQS` is ____.
## Result 48.1

## Task Fill blank: measured IC50 of the sequence `LCFWSAIFFT` is ____.
## Result 34.6

* * *

pIC50 for assorted sequences
target: HLA-A*02:02
protocolSummary: IEDB peptide-MHC binding, purified MHC/competitive/radioactivity; bounds were set here for any values at or beyond the usual limits of such assays
conditions: source organism: SARS-CoV1
A value of pIC50 is the negative decimal logarithm of a concentration given in moles per litre.

Answered cases to consult:
## Task Fill blank: measured pIC50 of the sequence `LLFLVLIML` is ____.
## Result 6.81

## Task Fill blank: measured pIC50 of the sequence `FMRFFTLGSI` is ____.
## Result 7.62

## Task Fill blank: measured pIC50 of the sequence `FLYIIKLVFL` is ____.
## Result 8.14

## Task Fill blank: measured pIC50 of the sequence `TLDAANHSI` is ____.
## Result 7.04

## Task Fill blank: measured pIC50 of the sequence `FICNLLLLFV` is ____.
## Result 8.60

New cases:
## Task Fill blank: measured pIC50 of the sequence `CLDAGINYV` is ____.
## Result 9.24

## Task Fill blank: measured pIC50 of the sequence `MVMCGGSLYV` is ____.
## Result 7.82

## Task Fill blank: measured pIC50 of the sequence `QMLSVVGFLV` is ____.
## Result 8.92

## Task Fill blank: measured pIC50 of the sequence `IAMWLLLLSI` is ____.
## Result 7.07

## Task Fill blank: measured pIC50 of the sequence `LMLKATLLCV` is ____.
## Result 8.47

## Task Fill blank: measured pIC50 of the sequence `VMYASALVLL` is ____.
## Result 9.60

## Task Fill blank: measured pIC50 of the sequence `LVIGFLFLA` is ____.
## Result 8.13

* * *

IC50 for assorted sequences
target: HLA-A*02:01
protocolSummary: IEDB peptide-MHC binding, cellular MHC/competitive/fluorescence; bounds were set here for any values at or beyond the usual limits of such assays
conditions: source organism: Vaccinia virus WR
Only the number, expressed in µM, is required.

## Task Fill blank: measured IC50 of the sequence `YVLFVKKML` is ____.
## Result 5.15

## Task Fill blank: measured IC50 of the sequence `RLEVIGLTT` is ____.
## Result 28.8

## Task Fill blank: measured IC50 of the sequence `AMHDKKIDIL` is ____.
## Result 8.94

## Task Fill blank: measured IC50 of the sequence `AASPMLYQLL` is ____.
## Result 16

## Task Fill blank: measured IC50 of the sequence `ETAIRAGYSI` is ____.
## Result 5.99

## Task Fill blank: measured IC50 of the sequence `IVVELEPSLA` is ____.
## Result 9.09

## Task Fill blank: measured IC50 of the sequence `LVNAIIDSA` is ____.
## Result 15.6

## Task Fill blank: measured IC50 of the sequence `SQHQHLAIM` is ____.
## Result 13.5

## Task Fill blank: measured IC50 of the sequence `NMKPNFWSRI` is ____.
## Result 23.4

* * *

target: HLA-A*68:02
protocolSummary: IEDB peptide-MHC binding, purified MHC/competitive/radioactivity; bounds were set here for any values at or beyond the usual limits of such assays
conditions: source organism: Vaccinia virus WR
The threshold is 100 nM. Values of IC50 beneath it are tagged 1 (yes); values meeting or exceeding it are tagged 0 (no).

These solved cases illustrate the format of a correct answer.
## Task Strictly below 100 nM: is that where IC50 of `NMDWRSLTQV` sits?
## Result 0 (no)

## Task Strictly below 100 nM: is that where IC50 of `TLVKSGLTEV` sits?
## Result 0 (no)

## Task Strictly below 100 nM: is that where IC50 of `IMTSTRTIIL` sits?
## Result 1 (yes)

## Task Strictly below 100 nM: is that where IC50 of `ILATLNTLI` sits?
## Result 0 (no)

## Task Strictly below 100 nM: is that where IC50 of `TIAVSVYGA` sits?
## Result 1 (yes)

# input for lookup
## Task Strictly below 100 nM: is that where IC50 of `GIKGLDERFV` sits?
## Result 0 (no)
